Experiment: qHTS assay to test for compound auto fluorescence at 535 nm (green) in HEK293 cells (AID 720680); further: on the % scale 0 is the no-effect control and ±100 the full control effect
Details: green autofluorescence 485/535 nm; series mostly up to 46 µM
Activity calls are given as the source filed them. The call rests on the fitted dose curve; in most records, active means well fitted curve in the direction sought with a large enough effect in the repeat runs; inconclusive means weak or mixed curves; inactive means flat fitted curve, though single readings scatter.
Measured Endpoint: outcome

Example cases with answers are listed next.
Compound: COC(=O)C[C@](O)(CCCC(C)(C)O)C(=O)O[C@@H]1C(OC)=CC23CCCN2CCc2cc4c(cc2[C@H]13)OCO4 (stereo partly drawn)
outcome: inactive
//
Compound: O=P(O)(O)C(O)(Cn1ccnc1)P(=O)(O)O
outcome: inactive
//
Compound: CCCCCCCC[N+](C)(C)CCCCCCCC
outcome: inactive
//
Compound: C=C1C(CCl)(CCl)C2(Cl)C(Cl)C(Cl)C1(Cl)C2(Cl)Cl (stereo not drawn)
outcome: inactive
//
Compound: CC1(C)S[C@@H]2[C@H](N3C(=O)C(c4ccccc4)NC3(C)C)C(=O)N2[C@H]1C(=O)O (stereo partly drawn)
outcome: inactive

GET /values?readout=outcome&item= CCCCCCCCCC[N+](C)(CCCCCCCCCC)CCC[Si](OC)(OC)OC
inactive

----------
Biological target: Cytochrome P450 2D6 (Homo sapiens) (UniProt P10635)
Sequence (P10635 whole entry, looked up): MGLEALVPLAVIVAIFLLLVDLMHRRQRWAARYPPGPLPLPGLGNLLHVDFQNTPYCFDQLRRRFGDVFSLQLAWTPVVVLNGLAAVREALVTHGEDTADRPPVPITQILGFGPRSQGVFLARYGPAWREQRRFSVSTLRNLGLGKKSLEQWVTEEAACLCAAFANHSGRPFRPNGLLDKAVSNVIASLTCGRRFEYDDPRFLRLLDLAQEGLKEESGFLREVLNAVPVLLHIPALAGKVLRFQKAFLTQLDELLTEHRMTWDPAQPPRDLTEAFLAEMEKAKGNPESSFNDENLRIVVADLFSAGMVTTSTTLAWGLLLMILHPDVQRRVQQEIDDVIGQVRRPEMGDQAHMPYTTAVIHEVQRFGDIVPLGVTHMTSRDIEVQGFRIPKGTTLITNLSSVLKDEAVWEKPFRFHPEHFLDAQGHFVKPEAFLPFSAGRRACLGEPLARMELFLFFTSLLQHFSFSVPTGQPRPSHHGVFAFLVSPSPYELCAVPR
Experiment: Cytochrome P450 Family 2 Subfamily D Member 6 (CYP2D6) small molecule antagonists: luciferase reporter qHTS assay (AID 1671196); further: nearly all actives have a fitted effect of over 50% in size
Conditions: P450-Glo CYP2D6 enzyme assay, luciferin luminescence, 1 h; series mostly up to 115 µM
Records with an inconclusive call do not appear. The source made the active and inactive calls. The call rests on the fitted dose curve; in most records, active means well fitted inhibition curve with a large enough effect in the repeat runs; inconclusive means weak or mixed curves; inactive means no such curve, though single readings can be large or run the other way.
Please state which outcome applies, choosing from y for active, n for inactive

For orientation, consider the following solved cases.
Compound: CC(C=O)c1ccccc1 (stereo unspecified)
Classification: n
--
Compound: CCCCCCCCSCc1cc(C)c(O)c(CSCCCCCCCC)c1
Classification: y

What did this assay record as the result for Cc1c(Cl)c(=O)oc2cc(O)ccc12 ?
n

What about this compound? CC(C)(C)c1cc(CCC(=O)OCCSCCOC(=O)CCc2cc(C(C)(C)C)c(O)c(C(C)(C)C)c2)cc(C(C)(C)C)c1O
n

Param item: CC/C=C(\C)C=O
n

----------
Test: A CellTox Green Cytotoxicity Assay to monitor cytotoxicity in HEK293 cells - 40 hour (AID 1224871); further: on the % scale 0 is the no-effect control and ±100 the full control effect; nearly all actives have a fitted effect of over 45% in size
Conditions: CellTox Green fluorescence; series mostly up to 76.8 µM
Results filed as inconclusive are left out. Calls of active or inactive are those of the source. Calls come from the whole dose curve; as a rule, active = well fitted activation curve with a large enough effect in the repeat runs; inconclusive = weak or mixed curves; inactive = flat fitted curve, though single readings scatter.

Mol Smiles: Cn1c(=O)[nH]c2ncn(C)c2c1=O
outcome: inactive

Mol Smiles: C[C@H]1O[C@@H](O[C@H]2CC[C@@]3(C)[C@H](CC[C@@H]4[C@@H]3C[C@@H](O)[C@]3(C)[C@@H](C5=CC(=O)OC5)CC[C@]43O)C2)C[C@H](O)[C@@H]1O[C@H]1C[C@H](O)[C@H](O[C@H]2C[C@H](O)[C@H](O[C@@H]3O[C@H](CO)[C@@H](O)[C@H](O)[C@H]3O)[C@@H](C)O2)[C@@H](C)O1
outcome: inactive

Mol Smiles: CCCCCCCCc1ccc(Nc2ccc(CCCCCCCC)cc2)cc1
outcome: inactive

----------
Assay: qHTS assay to identify small molecule antagonists of the glucocorticoid receptor (GR) signaling pathway - cell viability counter screen (AID 720693); further: nearly all actives have a fitted effect of over 55% in size; further: potency means the concentration at half of the fitted maximal effect
Details: GR-bla HeLa viability, CellTiter-Glo luminescence, 18 h, with 5 nM dexamethasone present; series mostly up to 58.5 µM
Results filed as inconclusive are left out. Active and inactive are the calls of the source. Calls come from the whole dose curve; as a rule, active = well fitted cell-killing curve with a large enough effect in the repeat runs; inconclusive = weak or mixed curves, or effect the other way; inactive = no such curve, though single readings can be large or run the other way.

Mol Smiles: CCCCCCCCCCCCN1CCCC1=O
Potency: 43.6 µM (active)
--
Mol Smiles: N[C@@H](Cc1ccc(O)c(O)c1)C(=O)O
Potency: inactive
--
Mol Smiles: O=C(O)Cc1nn(Cc2ccc(Br)cc2F)c(=O)c2ccccc12
Potency: inactive
--
Mol Smiles: NCCCC[C@H](NC(=O)[C@@H]1CCCN1C(=O)[C@@H]1CSSC[C@H](N)C(=O)N[C@@H](Cc2ccc(O)cc2)C(=O)N[C@@H](Cc2ccccc2)C(=O)N[C@@H](CCC(N)=O)C(=O)N[C@@H](CC(N)=O)C(=O)N1)C(=O)NCC(N)=O
Potency: inactive

----------
Assay: qHTS assay to identify small molecule antagonists of the thyroid receptor (TR) signaling pathway - cell viability counter screen (AID 743064); further: nearly all actives have a fitted effect of over 50% in size
Conditions: GH3.TRE-Luc viability, CellTiter-Fluor, 24 h; series mostly up to 70.3 µM
Text: National Center for Advancing Translational Sciences [NCATS] NIH Chemical Genomics Center [NCGC] U.S. Environmental Protection Agency [EPA] National Institutes of Environmental Health Sciences [NIEHS] National Toxicology Program [NTP] U.S. Food and Drug Administration [FDA] Thyroid receptor (TR), a nuclear hormone receptor, plays an important role in development, proliferation, differentiation, metabolism, brain function, and cardiovascular system. […]
Records with an inconclusive call do not appear. Active and inactive are the calls of the source. The call rests on the fitted dose curve; in most records, active means well fitted cell-killing curve with a large enough effect in the repeat runs; inconclusive means weak or mixed curves, or effect the other way; inactive means no such curve, though single readings can be large or run the other way.
Thanks in advance; please answer with one of these: true (1) (active), false (0) (inactive)

Compound: CCCCCCCCCC[N+](C)(CCCCCCCCCC)CCC[Si](OC)(OC)OC
Classification: true (1)
//
Compound: CCCCCCCCCCCCCCCCC(C(=O)O)C(O)(CC(=O)O)C(=O)O (centres undefined)
Classification: true (1)
//
Compound: NC(=O)c1cc[n+](CC2=C(C(=O)O)N3C(=O)[C@@H](NC(=O)C(c4ccccc4)S(=O)(=O)[O-])[C@H]3SC2)cc1 (some centres undefined)
Classification: false (0)
//
Compound: NCc1cccc(C2CCN(C(=O)c3ccc(C#Cc4ccccc4F)o3)CC2)c1
Classification: true (1)
//
Compound: CCCCCCCC[N+](C)(C)CCCCCCCC
Classification: true (1)

Here is the next item to consider.
What call does the record list for CN[C@@H]1[C@@H](O[C@H]2O[C@H](CO)[C@@H](N)[C@H](O)[C@H]2O)O[C@H]2C[C@@H](N)[C@@H](O[C@H]3[C@H](O)[C@@H](O)[C@H](N)C[C@@H]3N)O[C@@H]2[C@@H]1O ?
false (0)

----------
Test: qHTS assay to identify small molecule agonists of the TGF-beta/Smad signaling pathway (AID 1346859); further: on the % scale 0 is the no-effect control and ±100 the full control effect
Conditions: SBE-bla HEK293T, TGF-beta/Smad beta-lactamase reporter, 5 h; series mostly up to 76.8 µM
Source text: U.S. Tox21 Program National Center for Advancing Translational Sciences [NCATS] NIH Chemical Genomics Center [NCGC] U.S. Environmental Protection Agency [EPA] National Institutes of Environmental Health Sciences [NIEHS] National Toxicology Program [NTP] U.S. Food and Drug Administration [FDA] […]
Inconclusive results are not listed. Activity calls are given as the source filed them. The call rests on the fitted dose curve; in most records, active means well fitted activation curve with a large enough effect in the signal ratio in the repeat runs (not every such curve was filed as active); inconclusive means weak or mixed curves; inactive means flat fitted curve, though single readings scatter; the % refers to the signal ratio.
Measured Endpoint: activation

The examples below pair each entry with its known result.
Compound: CN1CCN(C)CC1
activation: inactive

Compound: CC/C=C\C/C=C\C/C=C\CCCCCCCC(=O)OC
activation: inactive

Compound: C=Cc1ccncc1
activation: inactive

Compound: Cc1ccc2n[nH]nc2c1
activation: inactive

Compound: NC(=O)c1ccccc1Cl
activation: inactive

Entry under review: O=C1c2ccccc2C(=O)c2c(Cl)cccc21 . Reported activation?
inactive

And what about the compound CC1CCC(C(C)(C)O)CC1 (stereo not given) ?
inactive

Item: C=C(C)C1CCC(C)CC1O (stereo not given)
inactive

How about this compound: CCC(O)CO (stereo not given)
inactive

Cool, now Cc1cccc(C)c1C
inactive

Also need CCCCCCCCCCCCCCCCC(C(=O)O)C(O)(CC(=O)O)C(=O)O (stereo not given) , thanks.
inactive

Check O=C1C=CC(=O)N1c1cccc(N2C(=O)C=CC2=O)c1 too.
inactive

What do you get for COc1cc(C(C)C)ccc1C ?
5.38% [at 15.8 µM] (inactive)

Could you do the same for N#Cc1nc(Cl)c(Cl)c(Cl)c1Cl , please?
inactive

Another compound to look at: O=C(N[C@H](CO)[C@H](O)c1ccc([N+](=O)[O-])cc1)C(Cl)Cl
inactive

----------
Assay: A CellTox Green Cytotoxicity Assay to monitor cytotoxicity in HepG2 cells - 24 hour (AID 1224878); further: nearly all actives have a fitted effect of over 45% in size; on Cytotoxicity: on the % scale 0 is the no-effect control and ±100 the full control effect
Conditions: CellTox Green fluorescence; series mostly up to 76.8 µM
Results filed as inconclusive are left out. Calls of active or inactive are those of the source. The call rests on the fitted dose curve; in most records, active means well fitted activation curve with a large enough effect in the repeat runs; inconclusive means weak or mixed curves; inactive means flat fitted curve, though single readings scatter.
Pick from active, inactive when you respond.

Sample answers from the record:
Molecule: CCN(CC)c1ccc(C=O)c(O)c1
Classification: inactive

Molecule: CN(C/C=C/c1ccccc1)Cc1cccc2ccccc12
Classification: active

Molecule: CCSCC
Classification: inactive

Molecule: O=C(CCCCCCCCc1cccnc1)N1CCC(C=C(c2ccccc2)c2ccccc2)CC1
Classification: inactive

Molecule: COc1cc(OC)nc(NC(=O)NS(=O)(=O)Nc2ccccc2C(=O)N(C)C)n1
Classification: inactive

Lab log entry: CCc1cccc(C)c1N(C(=O)CS(=O)(=O)O)C(C)COC (configuration not stated) — outcome as called in the assay?
inactive

Please answer likewise for NC(=O)c1ccccc1Cl
inactive

----------
Test: qHTS assay to identify small molecule HDAC inhibitors (AID 1259364);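 further: wild-type HCT-116 cells with endogenous class I/II HDAC activity; nearly all actives have a fitted effect of over 45% in size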
Conditions: HCT-116 HDAC-Glo I/II luminescence, 2 h; series mostly up to 92.4 µM
Excerpt: U.S. Tox21 Program National Center for Advancing Translational Sciences [NCATS] NIH Chemical Genomics Center [NCGC] U.S. Environmental Protection Agency [EPA] National Institutes of Environmental Health Sciences [NIEHS] National Toxicology Program [NTP] U.S. Food and Drug Administration [FDA] Tox21 Assay Overview: Histone deacetylases (HDACs) are a group of epigenetic enzymes that regulate gene expression by histone deacetylation. […]
Results filed as inconclusive are left out. The source made the active and inactive calls. Calls follow the shape of the dose curve; as a rule, active = well fitted inhibition curve with a large enough effect in the repeat runs; inconclusive = weak or mixed curves; inactive = flat fitted curve, though single readings scatter.
// allowed return values: active, inactive

Below are worked cases with known answers.
Compound: CC(c1cc(C(C)(C)C)cc(C(C)(C)C)c1O)c1cc(C(C)(C)C)cc(C(C)(C)C)c1O
Classification: inactive
//
Compound: c1ccc(-c2nc3ccccc3[nH]2)cc1
Classification: active
//
Compound: COc1c(Br)cc(Br)c(C)c1Br
Classification: inactive
//
Compound: CCCC(=O)c1cc(O)c(O)cc1O
Classification: inactive
//
Compound: CCSCC
Classification: inactive
//
Compound: CCN(CC)c1ccc(C=O)c(O)c1
Classification: inactive

What is the recorded call for this compound in the test? C=CC(=O)OCC(Br)CBr (configuration not stated)
inactive

# repeat for N#CCCOCCC#N
inactive

Would you mind doing c1ccc2cc3c4ccccc4c4ccccc4c3cc2c1 as well?
inactive

Now consider C=CC(C)(C)O .
inactive
